All figures here come from ChEMBL document CHEMBL4304834.

Target: Alpha-2B adrenergic receptor (Homo sapiens)
Sequence (P18089 whole entry): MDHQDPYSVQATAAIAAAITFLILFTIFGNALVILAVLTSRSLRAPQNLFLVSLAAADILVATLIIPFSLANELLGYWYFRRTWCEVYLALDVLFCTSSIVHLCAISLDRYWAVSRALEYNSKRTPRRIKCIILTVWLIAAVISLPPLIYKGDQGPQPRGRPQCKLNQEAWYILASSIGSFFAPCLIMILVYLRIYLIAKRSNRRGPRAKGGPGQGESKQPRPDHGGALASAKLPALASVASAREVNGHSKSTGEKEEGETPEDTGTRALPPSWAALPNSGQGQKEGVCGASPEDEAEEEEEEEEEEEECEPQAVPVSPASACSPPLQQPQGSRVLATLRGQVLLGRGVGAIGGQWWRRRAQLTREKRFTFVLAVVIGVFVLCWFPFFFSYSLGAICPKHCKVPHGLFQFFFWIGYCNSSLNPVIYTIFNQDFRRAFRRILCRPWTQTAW
Experiment: Displacement of [3H]-Rauwolscine from human recombinant adrenergic Alpha2B receptor expressed in HEKT cells after 90 mins by microbeta scintillation counting method
outcome measure: pKi
Lab note: report pKi as minus log10 of the concentration in molar units, number only.

[
  {
    "compound": "CC[C@H]1c2cc(OC)ccc2CC[C@@]1(C)N (racemic)",
    "pKi": 5.30
  }
]

Determine from records and report pKi for CC[C@H]1c2ccccc2N(c2ccccc2)C[C@@]1(C)N (racemic)
6.40
